Hi there, I'd appreciate the recorded GI50 for every entry that follows.
# System: HS02 cells
# METHOD_DESCRIPTION: Combination matrix cell viability assay
# Type: cell-based, human
# EXPERIMENTAL_SETUP: Homo sapiens, 72 h, HS02, single drug within the combination matrix

| SMILES_REPRESENTATION | TEST_RESULT |
| --- | --- |
| Nc1cc(C(F)(F)F)c(-c2cc(N3CCOCC3)nc(N3CCOCC3)n2)cn1 | 4.9 µM |
| Cc1nc(Nc2ncc(C(=O)Nc3c(C)cccc3Cl)s2)cc(N2CCN(CCO)CC2)n1 | > 10 µM |
| CS(=O)(=O)N1CCN(Cc2cc3nc(-c4cccc5[nH]ncc45)nc(N4CCOCC4)c3s2)CC1 | > 10 µM |
| CCn1c(=O)c(-c2cc[nH]n2)cc2c(C)nc(N)nc21 | > 10 µM |

Here's the next entry for you.
Looking up CNC(=O)c1ccccc1Nc1cc(Nc2ccc(N3CCOCC3)cc2OC)ncc1C(F)(F)F , I found its GI50 recorded as > 10 µM

Values were extracted from paper PMC10832398.
